Hello, the source for this data is PubChem BioAssay, in case you need it.

Test: IRF3 reporter activation in THP-1 macrophages, cell-based, PMA-stimulated THP-1, luminescence (AID 1053176)
Experimental Parameters: PMA-differentiated THP-1, IRF3 reporter luminescence; stronger effect = higher value
Readout Type: fraction signal
Give the figure only, with no unit attached.

Smiles Str: CCn1c(-c2nonc2N)nc2c(C#CCN)ncc(OCCCN)c21
Readout Type: fraction signal
Data Value: -0.008
//
Smiles Str: CN=C1NC(=O)C(=Cc2ccc3ncccc3c2)S1
Readout Type: fraction signal
Data Value: 0.0015
//
Smiles Str: Cn1cc(C2=C(c3cn(CCCCC(=N)N)c4ccccc34)C(=O)NC2=O)c2ccccc21
Readout Type: fraction signal
Data Value: 0.0055

Enquiry: Look up and report measured fraction signal for this entry: `CCc1nccc2c1nc(-c1nonc1N)n2CC`
Return: 0.005

Enquiry: Give fraction signal for `OCCn1c(-c2ccncc2)c(-c2ccc(F)cc2)c2ncccc21`
Return: -0.0135

Enquiry: Retrieve fraction signal measured for `O=C1NC(=NCc2ccccc2Br)SC1=Cc1ccc2ncccc2c1` and print it.
Return: -0.0095

Enquiry: For `COc1cc(F)c(F)c(F)c1C(=O)c1cnc(NC2CCN(S(C)(=O)=O)CC2)nc1N` , write its fraction signal.
Return: -0.0095

Enquiry: Answer with reported fraction signal of `CS(=O)(=O)CCN(CC#N)Cc1ccc(-c2ccc3ncnc(Nc4ccc(OCc5cccc(F)c5)c(Cl)c4)c3c2)o1`
Return: 0.001

----------
Target Entity: ATP-dependent translocase ABCB1 (Homo sapiens) (UniProt P08183)
Sequence (P08183 whole entry, looked up): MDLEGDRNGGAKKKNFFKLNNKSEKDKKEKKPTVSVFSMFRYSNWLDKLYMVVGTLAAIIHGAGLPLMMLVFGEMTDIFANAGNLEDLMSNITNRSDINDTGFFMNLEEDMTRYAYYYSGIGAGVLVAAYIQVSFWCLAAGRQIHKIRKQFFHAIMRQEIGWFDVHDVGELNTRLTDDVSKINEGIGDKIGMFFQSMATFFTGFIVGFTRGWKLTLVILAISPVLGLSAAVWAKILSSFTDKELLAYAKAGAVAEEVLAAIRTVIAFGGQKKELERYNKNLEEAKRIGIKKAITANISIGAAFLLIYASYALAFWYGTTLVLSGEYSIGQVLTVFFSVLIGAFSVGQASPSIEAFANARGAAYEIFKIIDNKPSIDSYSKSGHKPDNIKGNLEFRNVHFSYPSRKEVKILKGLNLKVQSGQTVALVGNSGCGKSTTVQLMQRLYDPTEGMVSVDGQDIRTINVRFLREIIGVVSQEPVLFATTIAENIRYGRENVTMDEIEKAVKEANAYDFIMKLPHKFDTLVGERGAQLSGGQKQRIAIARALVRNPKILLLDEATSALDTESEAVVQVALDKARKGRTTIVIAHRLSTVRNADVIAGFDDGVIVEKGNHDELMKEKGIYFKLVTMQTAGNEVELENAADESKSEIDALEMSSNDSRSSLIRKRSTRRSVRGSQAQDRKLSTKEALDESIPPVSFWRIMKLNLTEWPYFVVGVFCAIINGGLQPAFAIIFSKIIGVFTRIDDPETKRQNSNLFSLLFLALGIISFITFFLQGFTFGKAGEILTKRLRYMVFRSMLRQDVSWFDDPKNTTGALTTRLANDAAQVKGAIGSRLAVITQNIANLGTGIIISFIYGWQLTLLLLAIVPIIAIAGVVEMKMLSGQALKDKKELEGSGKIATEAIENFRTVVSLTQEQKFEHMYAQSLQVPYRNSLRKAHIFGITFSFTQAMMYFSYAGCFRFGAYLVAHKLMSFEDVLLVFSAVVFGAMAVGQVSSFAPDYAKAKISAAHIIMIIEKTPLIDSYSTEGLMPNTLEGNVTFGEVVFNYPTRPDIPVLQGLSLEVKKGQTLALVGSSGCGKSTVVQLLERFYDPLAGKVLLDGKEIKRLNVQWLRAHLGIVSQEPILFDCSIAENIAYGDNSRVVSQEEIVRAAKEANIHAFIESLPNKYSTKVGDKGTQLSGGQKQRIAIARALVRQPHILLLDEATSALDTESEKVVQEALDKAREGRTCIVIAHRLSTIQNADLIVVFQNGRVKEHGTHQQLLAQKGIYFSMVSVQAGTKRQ
Test: MDR1 (ABCB1) efflux transporter inhibition, cell-based (AID 377)
Experimental Parameters: MDR1-expressing cells, fluorescent substrate accumulation slope; stronger effect = higher value; concentration not given here
Inconclusive results are not listed.
Readout Type: fluorescence slope change (%)
Just the number please, in %, no unit attached.

Enquiry: Return value of fluorescence slope change for input `C#C[C@]1(O)CC[C@H]2[C@@H]3CCC4=CC(=O)CC[C@@H]4[C@H]3CC[C@@]21CC` , no commentary.
Return: -2.5

----------
Target Entity: Cellular tumor antigen p53 (Homo sapiens) (UniProt P04637)
Sequence (P04637 whole entry, looked up): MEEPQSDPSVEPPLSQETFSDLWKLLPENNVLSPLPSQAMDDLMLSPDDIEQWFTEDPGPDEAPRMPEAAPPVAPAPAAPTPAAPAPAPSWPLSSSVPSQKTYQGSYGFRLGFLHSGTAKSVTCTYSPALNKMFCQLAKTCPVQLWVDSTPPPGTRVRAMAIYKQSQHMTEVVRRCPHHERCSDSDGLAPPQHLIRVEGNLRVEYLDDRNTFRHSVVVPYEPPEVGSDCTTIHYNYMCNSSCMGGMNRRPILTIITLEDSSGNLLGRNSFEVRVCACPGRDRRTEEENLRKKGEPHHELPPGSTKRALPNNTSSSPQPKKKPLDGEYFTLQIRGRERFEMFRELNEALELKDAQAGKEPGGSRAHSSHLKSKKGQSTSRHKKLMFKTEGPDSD
Test: kinase inhibitors altering GFP-p53 stability in HPV16-positive cells, imaging, known kinase inhibitor set, EGFP/DsRed ratio (AID 1053116);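 further: cells exposed to compounds for 24 h at 37 °C before reading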
Experimental Parameters: stronger effect = higher value; measured here: GFP-p53 positive objects count
// label = t if EGFP object count is not less than 6, otherwise f

Some solved entries appear below for comparison.
Compound: O=C1Nc2ccccc2/C1=C1\CCc2cc(O)ccc21
Class Assignment: t

Compound: COc1cc(Nc2ncc3c(C)nc(-c4cccc(Oc5ccccc5)c4)n3n2)cc(OC)c1OC
Class Assignment: t

Compound: COc1cc(Nc2ncc(-c3ccccc3)o2)cc(OC)c1
Class Assignment: f

Compound: CS(=O)(=O)CCNCc1ccc(-c2ccc3ncnc(Nc4ccc(OCc5cccc(C(F)(F)F)c5)cc4)c3c2)o1
Class Assignment: f

Compound: CC(=O)NC(Cc1ccc(OP(=O)(O)O)cc1)C(=O)NC1CCC(=O)N2CCCC(C(=O)NCc3cccc4ccccc34)N2C1=O (stereo unspecified)
Class Assignment: t

Enquiry: Check the entry `CN(C)CCNC(=O)Nc1ccc(N(C)c2ccnc(Nc3ccc(CS(C)(=O)=O)cc3)n2)cc1` : does EGFP object count equal or exceed 6?
Return: f

Enquiry: Can `CCn1c(-c2nonc2N)nc2cncc(C(=O)N3CC[C@H](N)C3)c21` be said to have EGFP object count at or above 6?
Return: f

Enquiry: Test whether the compound `COc1cc2c(cc1Nc1nc(Nc3ccsc3C(N)=O)c3cc[nH]c3n1)N(C(=O)CN(C)C)CCC2(C)C` records EGFP object count of 6 or higher.
Return: f

Enquiry: Threshold query (EGFP object count >= 6) on `COc1cccc(-n2ncc3c(N/N=C/c4ccc(F)cc4)ncnc32)c1`
Return: t

Enquiry: Say whether `Fc1ccc(-c2ncn(C3CCNCC3)c2-c2ccnc(Oc3ccc4c(c3)OCO4)n2)cc1` shows EGFP object count of 6 or more.
Return: t

Enquiry: Please check the record `Cn1cc(C2=C(c3ccc4ccccc4c3)C(=O)NC2=O)c2ccccc21` and state if its EGFP object count is at or above 6.
Return: f

Enquiry: Hello, I need to know if `Cn1cc(C2=C(c3cn(CCCCN)c4ccccc34)C(=O)NC2=O)c2ccccc21` has measured EGFP object count not below 6. Thanks!
Return: f

Enquiry: Confirm if EGFP object count reported for the compound `O=C1NC(=NCCc2ccc(F)cc2)SC1=Cc1ccc2ncccc2c1` is 6 or above.
Return: f
